The reported measurements were obtained from the supplement of paper PMC10567573.

Experiment: protein stability index of a GFP-peptide fusion (GPS, HEK-293T) (PSI 1-6); higher = more stable;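 also: 24-mer peptide tiles fused after GFP, lentivirally expressed, FACS-sorted into six equal bins by GFP/DsRed ratio, decoded by Illumina sequencing, PSI is the read-weighted mean bin number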
Details: treatment: MLN4924 1 uM, 8 h; c terminus: a fixed tail appended
For each record, write down the corresponding protein stability index.
Give only the figure.

What the record says about QFTSSSSMKGSCGIGGGIGGGSSR [KRT16] : protein stability index is 3.48

What the record says about KSYIFEGALGMSNRDSYFYAAIVA [VMA21] : protein stability index is 2.6

What the record says about DDEEVDTHFASQEFFSANAISDQL [ADAMTSL2] : protein stability index is 5.21

What the record says about QWLKDKILSEEGRRQQAKLKELQA [KCNAB2] : protein stability index is 3.32

What the record says about NTFFCHSNMCINNTLVCNGLQNCV [NETO1] : protein stability index is 2.07

What the record says about AHSNAISNCCFTFSGHFLCTSSWD [WDR88] : protein stability index is 2.3

What the record says about AQVLMLGQILELPWKEETFLVLQS [FANCE] : protein stability index is 2.65

What the record says about YSNTKENGINGELTSADRETAEEV [MAP2] : protein stability index is 5.44

What the record says about YANAVLQALSNVPPLRNYFLEEDN [USP39] : protein stability index is 2.12

What the record says about KETEFLRLKRTRLGLDDFESLKVI [STK38L] : protein stability index is 2.56

What the record says about SGYALAEDGKRCVAVDYCASENHG [MATN2] : protein stability index is 4.36

What the record says about GELLATGDKGGRVVIFQREPESKN [PPP2R2C] : protein stability index is 4.93

What the record says about KQWGPLEREPVRGQCLDSTDQLEF [RTN2] : protein stability index is 4.71

What the record says about HHREGLLAIFKSGGIPALVKMLGS [CTNNB1] : protein stability index is 2.71

What the record says about RVLRQPRPALAQQAQGARAGGSAR [GMCL1] : protein stability index is 4.93

What the record says about EEHLSPLDFLHSANFSLGSINQRL [RNF180] : protein stability index is 3.41

What the record says about TWHHTKPLLPSDLRRTGCAALRIA [GAN] : protein stability index is 2.48

What the record says about GARCATWFQDPTRFTGTMDAFVKI [SLC25A39] : protein stability index is 2.61

What the record says about ILEDMRCQYEALVENNRRDVEAWF [KRT36] : protein stability index is 2.84

What the record says about ISVQELMGCLGVAKEDGKADTKKR [SMOC2] : protein stability index is 3.92

What the record says about QTNSETAVVALTQDQPSEAATGGA [HDAC6] : protein stability index is 5.42

What the record says about SSYSLSDMVSNIELPTRIHEEVYF [MIA2] : protein stability index is 2.5

What the record says about AANKGEEKKDDENIPMETEETHLE [SMARCE1] : protein stability index is 5.34

What the record says about YFQSVTSNRWLMVKIFLILIVFFI [STX5] : protein stability index is 2.93

What the record says about KPGPQDTVERPFYDLWASDNPLDR [NOP53] : protein stability index is 4.38

What the record says about QICRAQGLETLFSKAQELGGAGRE [ZSWIM9] : protein stability index is 3.66

What the record says about LPFGPFNGTAWTYHSQDELGGFSH [PKD2L1] : protein stability index is 2.58
